- Tested on: tubulin (colchicine site)
- ASSAY: Inhibition of [3H]colchicine binding to tubulin
- Parameters: species or system bovine
- CONDITION_DETAILS: 5 μM compound
REPORTED_METRIC: Percent Colchicine Binding Inhibition (CBI), 5 μM (%)

1. COc1cc(/C=C\CC/C=C/C=C(\C)CCC(O)c2cccs2)cc(OC)c1OC (stereo not drawn)    30.2
2. COc1ccc(/C=C\CC/C=C/C=C(\C)CCC(O)c2ccccc2OC)c(OC)c1 (stereo not drawn)    −17.4
3. COc1cc(/C=C\CC/C=C/C=C(\C)CCC(O)c2ccco2)cc(OC)c1OC (stereo not drawn)    30.3
4. COc1ccccc1C(O)CC/C(C)=C/C=C/CC/C=C\c1cc(OC)c(OC)c(OC)c1 (stereo not drawn)    12.5
5. COc1ccc(/C=C\CC/C=C/C=C(\C)CCC(O)c2cccs2)c(OC)c1 (stereo not drawn)    −2.7
6. COc1ccc(/C=C\CC/C=C/C=C(\C)CCC(O)c2ccco2)c(OC)c1 (stereo not drawn)    −2.2
7. COc1ccc(/C=C\CC/C=C/C=C(\C)CCC(O)c2cc(OC)ccc2OC)c(OC)c1 (stereo not drawn)    −6.8
8. C=CC[C@@H](CC/C(C)=C/C=C/CC/C=C\[C@@H]1CSC([C@@H]2C[C@@H]2C)=N1)OC    84.9
9. COc1ccc(/C=C\CC/C=C/C=C(\C)CCC(O)c2cc3ccccc3o2)c(OC)c1 (stereo not drawn)    −50.0
10. COc1cc(/C=C\CC/C=C/C=C(\C)CCC(O)c2cc3ccccc3o2)cc(OC)c1OC (stereo not drawn)    9.9
11. COc1ccc(/C=C\CC/C=C/C=C(\C)CCC(O)c2cc3ccccc3s2)c(OC)c1 (stereo not drawn)    −41.0
12. COc1cc(/C=C\CC/C=C/C=C(\C)CCC(O)c2cc3ccccc3s2)cc(OC)c1OC (stereo not drawn)    5.0

Values from patent US6392055B1
